- Tested on: OVCAR-4 ovarian
- assay_procedure: NCI tumour cell line growth inhibition, 48 h
endpoint_name: TGI

Before answering, review these 3 worked examples.
molecule: CCOc1cc(Br)c(C(C)NC(=O)c2cccc(OC)c2)cc1OCC (stereo unspecified)
TGI: > 93.5 µM

molecule: C=CCN1C(=O)/C(=C/c2ccco2)N=C1SC1OC(COC(C)=O)C(OC(C)=O)C(OC(C)=O)C1OC(C)=O (stereo unspecified)
TGI: > 100 µM

molecule: COC(=O)CCc1ccc2c(c1)C(=O)CC2
TGI: > 100 µM

Query (molecule): Cc1ccc(NC(=O)C(Cc2c[nH]c3ccccc23)NC(=O)Oc2ccccc2)cc1C (stereo unspecified) ; field requested: TGI > 100 µM

Next molecule up: C(/Cc1ccc2c(c1)OCO2)=N\NC1=NCCN1 > 100 µM

Next molecule up: CCOC(=O)c1cc(I)c(-c2cc(C)no2)n1C 75 µM
